- Species: Rattus norvegicus
- test: Open TG-GATES - Regimen: Daily Repeat
- Type: toxicity, organism-based, Sprague-Dawley
- Set-up: regimen Daily Repeat, gender Male, age 6 weeks
- test_settings: in vivo, po, 0 mg/kg, […], tissue Plasma, route gavage, dose level Control, time 28 day
experimental_endpoint: DBIL
Please provide the amount together with its unit, number first.

Exam item: Respond only with DBIL recorded for CC(C)NNC(=O)c1ccncc1 [IPRONIAZID]
Marked response: 0.002 mg/dL

Exam item: Respond only with DBIL recorded for Brc1ccccc1 [BROMOBENZENE]
Marked response: 0.018 mg/dL

Exam item: Respond only with DBIL recorded for CN1C(=O)CCS(=O)(=O)C1c1ccc(Cl)cc1 (stereo not drawn) [CHLORMEZANONE]
Marked response: 0.006 mg/dL

Exam item: Respond only with DBIL recorded for O=C(OC[C@H]1O[C@@H](OC(=O)c2cc(O)c(O)c(OC(=O)c3cc(O)c(O)c(O)c3)c2)[C@H](OC(=O)c2cc(O)c(O)c(OC(=O)c3cc(O)c(O)c(O)c3)c2)[C@@H](OC(=O)c2cc(O)c(O)c(OC(=O)c3cc(O)c(O)c(O)c3)c2)[C@@H]1OC(=O)c1cc(O)c(O)c(OC(=O)c2cc(O)c(O)c(O)c2)c1)c1cc(O)c(O)c(OC(=O)c2cc(O)c(O)c(O)c2)c1 [TANNIC ACID]
Marked response: 0.006 mg/dL

Exam item: Respond only with DBIL recorded for CNC(=C[N+](=O)[O-])NCCSCc1ccc(CN(C)C)o1 [RANITIDINE]
Marked response: 0.092 mg/dL

Exam item: Respond only with DBIL recorded for CCCc1cc(=O)[nH]c(=S)[nH]1 [PROPYLTHIOURACIL]
Marked response: 0.012 mg/dL

Exam item: Respond only with DBIL recorded for NC1=NC(=O)C(c2ccccc2)O1 (stereo not drawn) [PEMOLINE]
Marked response: 0.018 mg/dL

Exam item: Respond only with DBIL recorded for CN(C)CCC(c1ccc(Cl)cc1)c1ccccn1 (stereo not drawn) [CHLORPHENIRAMINE]
Marked response: 0.016 mg/dL

Exam item: Respond only with DBIL recorded for CN/C(=N/CCSCc1nc[nH]c1C)NC#N [CIMETIDINE]
Marked response: 0.1 mg/dL

Exam item: Respond only with DBIL recorded for COC(=O)C1=C(C)NC(C)=C(C(=O)OC)C1c1ccccc1[N+](=O)[O-] [NIFEDIPINE]
Marked response: 0.01 mg/dL

Exam item: Respond only with DBIL recorded for CCOc1ccc(NC(C)=O)cc1 [PHENACETIN]
Marked response: 0.02 mg/dL

Exam item: Respond only with DBIL recorded for Nc1c2c(nc3ccccc13)CCCC2 [TACRINE]
Marked response: 0 mg/dL

Exam item: Respond only with DBIL recorded for Cc1nnc2n1-c1ccc(Cl)cc1C(c1ccccc1Cl)=NC2 [TRIAZOLAM]
Marked response: 0.008 mg/dL
